# IC50 per record follows
study system: p-Akt2 in WM115 cells (Homo sapiens)
Construct: SureFire assays to detect cellular p-Akt1, p-Akt2 and p-Akt3 levels in WM115 cells (Akt2/3) and LNCaP cells (Akt1); endogenous in cells; host or cells: WM115 (ECACC 91061232), insulin-stimulated
Sequence (P31751 whole entry): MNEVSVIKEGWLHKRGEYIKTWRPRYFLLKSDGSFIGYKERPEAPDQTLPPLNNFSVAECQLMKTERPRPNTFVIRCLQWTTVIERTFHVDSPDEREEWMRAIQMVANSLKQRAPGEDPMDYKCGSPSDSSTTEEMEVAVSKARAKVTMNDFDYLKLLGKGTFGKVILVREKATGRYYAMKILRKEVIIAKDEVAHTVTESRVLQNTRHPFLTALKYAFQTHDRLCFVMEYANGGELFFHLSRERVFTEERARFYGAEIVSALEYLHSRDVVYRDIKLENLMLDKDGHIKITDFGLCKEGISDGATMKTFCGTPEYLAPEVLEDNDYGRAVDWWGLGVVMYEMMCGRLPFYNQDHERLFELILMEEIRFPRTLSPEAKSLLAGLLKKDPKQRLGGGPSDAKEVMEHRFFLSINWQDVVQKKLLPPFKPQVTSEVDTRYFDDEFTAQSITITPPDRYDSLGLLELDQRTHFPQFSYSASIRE
test description: Phospho-Akt cellular SureFire assay, p-Akt2 in WM115 cells
Assay type: cell-based
assay setup: insulin stimulated, read-out: Biological Assay 2 IC50 (nM) Akt2 WM115
Procedure: Biological Assay 2: Phospho-Akt (p-Akt) Cellular SureFire Assays The following describes SureFire assays to detect cellular p-Akt1, p-Akt2 and p-Akt3 levels in WM115 cells (Akt2/3) and LNCaP cells (Akt1). […] 2 μL dilution buffer, supplemented with a 1/20 dilution of donor beads was added to each well and incubated for a further 2 h. Plates were read with the EnVision® Multilabel Plate Reader and using the AlphaScreen settings. Compound IC50 was determined using a 4-parameter equation.
value kind: IC50 (nM)

| compound smiles | meas value |
| --- | --- |
| CN(C(=O)C1CC1)[C@H]1CC[C@H](CC(=O)Nc2cnc(-c3ccc(C(C)(C)N)c(F)c3)c(-c3ccccc3)c2)CC1 | 18000 |
| NC1(c2ccc(-c3ncc(NC(=O)C[C@H]4CC[C@H](N5CCOCC5)CC4)cc3-c3ccsc3)cc2)CCC1 | 3000 |
| COC(=O)N(C)[C@H]1CC[C@H](CC(=O)Nc2cc(-c3ccccn3)c(-c3ccc(C4(N)CCC4)cc3)cn2)CC1 | 12000 |
| CCN(C(C)=O)[C@H]1CC[C@H](CC(=O)Nc2cc(-c3ccccc3)c(-c3ccc([C@]4(N)C[C@](C)(O)C4)cc3)nn2)CC1 | 1500 |
